- System: MS2 coat protein
- test.protocol: apparent Kd, MS2 coat protein; higher = weaker binding; RNA-MaP array; FMN 200 µM where present
- stated.conditions: ligand present: flavin mononucleotide; designed as: OFF switch for flavin mononucleotide
The following ranges of apparent Kd define the classes used here: bucket 1 = under 30 nM, bucket 2 = from 30 nM up to 80 nM, bucket 3 = 80 nM and over

Exercise: Each sequence maps to one class by apparent Kd. Which class for `GUGAGUAGUCAGGAUAUGCUGUACAAAAGUACAGCAGAAGGGAUUACAUGAGGAUCACCCAUGUUUACCUCAUG` ?
Solution: bucket 3

Exercise: Form: Item = `UGAGCCUCGUGAGGAUAUACAUGAGGAUCACCCAUGUAAUAGGAUGAACGGUGGAAACACCGAAUGUAGAAGGCACGAGGCUCA` ; Class = ?
Solution: bucket 3

Exercise: Assign a bin to `GUUAUGUCAGGAUAUGCUUAUGGUGGGUGCUCAGACAUGAUGCAGAAGGGACAUGAGGAUCACCCAUGUACUGU`
Solution: bucket 3

Exercise: Hello team, could you let me know which band the following sequence falls into: `GGAUGACAAAGUCAUCCUUAACGAACAUGAGGAUCACCCAUGUAGGAUAUGCAACUCAAAGAGUUGCAGAAGGACAUGUGCCUU`
Solution: bucket 3

Exercise: Kindly identify the class of `GUGGUGCAUAUACGUGGAGGUACAUGAGGAUCACCCAUGUAAGAGGAUAUGCGGAUACUAGCUCAGCAGAAGGCUUACAAAUGA` .
Solution: bucket 2

Exercise: Bin? `CGCACUGAUAGAGGAUAUGUUUAACAUGAGGAUCACCCAUGUGUACAAGGAUCAAUAUAUAAGUAACAGAAGGCUAUUAGUGCG`
Solution: bucket 1

Exercise: Please classify: `ACAUGAGGAUCACCCAUGUUUUCAUGGAUUAUUAUUCUUUGAUAGGAUAUGUUAGUUAAGUAUUUACAGAAGGAUCAUUACCAA`
Solution: bucket 1

Exercise: Determine which band this sequence sits in: `CGACACAUGAGGGUCUCCCAUGACAUGAGGAUCACCCAUGUGCAGGAUAUACGUGUGAUGGUAUAGUAGAAGGGCACUCUAUGU`
Solution: bucket 2

Exercise: Determine which band this sequence sits in: `GCAAUCGAGGGAGGAUAUUGUGAGAUGGUGACAUGAGGAUCACCCAUGUGACGAGAAGGCCCAGUGCGCCCGCUUAACUGCUGA`
Solution: bucket 3

Exercise: Kindly identify the class of `AAUUUACAGCGAGGAUAUACAUGAGGAUCACCCAUGUAAUCAUAUGAUAUUUUUUUUGUAUGAGUGUAGAAGGCGCAAAUAAAA` .
Solution: bucket 1

Exercise: Form: Item = `GUGUAGUCAGGAUAUACAUAGGAAGAGAAGAGAAGAGAAGUACAUGAGGAUCACCCAUGUAGAAGGGACAGUGU` ; Class = ?
Solution: bucket 1

Exercise: Band assignment needed for `AAAUACCUUGUGAUCAGCGUAACAUGAGGAUCACCCAUGUUGCAGGAUAUCGAACCCAGUCAGUACGAGAAGGGCAAUAGUGUU` please.
Solution: bucket 1

Exercise: Hey, which category is `GGAUGUCAAAGACAUCCUAAACGAACAUGAGGAUCACCCAUGUAGGAUAUGCUACUCAAAGAGUAGCAGAAGGACAUGUGCCUU` in, do you know?
Solution: bucket 3

Exercise: Which category fits this record: `UAUUAAUACGAAGGAUAUGGUUACAUGAGGAUCACCCAUGUAUGUAUUUUGAUCUAAUAAUUUAACCAGAAGGUCGAAUAUAAA`
Solution: bucket 2

Exercise: Sort into band: `UGACACUUGAGGGUCUCCCUUGACAUGAGGAUCACCCAUGUGCAGGAUAUACGUGUGAUGGUAUAGUAGAAGGGCACUCUAUGU`
Solution: bucket 2

Exercise: Textbook exercise: identify the category of the sequence given here, `AAACUGUGAGGAUAUGGUGAGUAGUGCCUGAGCGCUGCUCACCAGAAGGCACAUGAGGAUCACCCAUGUAUAAA` , according to its measured value.
Solution: bucket 2

Exercise: Class? Entry: `UCUGGUCAAGGAUAUGCGUAAUGUGUUACGGCACGAGGUCUACAUGAGGAUCACCCAUGUAGAAGGUGAUCAGA`
Solution: bucket 1

Exercise: Band for `GUCAGCUCGUGAGGAUAUACAUGUGCUGGAUACAGCAUUAAAUAAUUCACAUGAGGAUCACCCAUGUAGAAGGCACGAGCUGAU` ?
Solution: bucket 2

Exercise: Which band does `UCGAACGGAAACAAAGUAAAUAGACAUGAGGAUCACCCAUGUAAGGAUAUGCCUACUAAAAGUAGGCAGAAGGUACGCGUUCGA` fall in?
Solution: bucket 1

Exercise: Where would `CUGAUGUUAGGAUAUCAGGCGCCCGCCACUAGCAGGGCGCAUGAGAAGGGACAUGAGGAUCACCCAUGUAGUAA` land among the classes by reported apparent Kd?
Solution: bucket 2

Exercise: Hi, small favor: classify `GUCCAACAUGAGGAUCACCCAUGUGAGGAUAUGCGAAUUUCAUCAAAAGAUGAAAUUUGCAGAAGGCACAGGAC` by its apparent Kd when you get a moment.
Solution: bucket 2

Exercise: Categorize the following entry: `UAUAUAUAGUAAGGAUAUGUAUAUACUUUAUAAACAGAAGGUACUGACAUGAGGAUCACCCAUGUUUUAGUGUGGGCAUGUAGA`
Solution: bucket 3

Exercise: # bin label for `UGAUAGGACAGAGGAUAUACGUAUAAAUAUCCUUACAUGAGGAUCACCCAUGUAGAAGGCUGUCCUAUCUAAGUCGGAAACGAC`
Solution: bucket 1

Exercise: Assign a bin to `UCUGUUCAAGGAUAUGCGUAAUGUGUUACGGCACGAGGUCUACAUGAGGAUCACCCAUGUAGAAGGUGAUCAGA`
Solution: bucket 1

Exercise: Determine which band this sequence sits in: `GGUGCGUUUGUGAGGAUAUGCUGGUCCUUGGAUCAGCAGAAGGCACAUGAGGAUCACCCAUGUGGUGUCCCUCC`
Solution: bucket 3

Exercise: Which class is correct for the following sequence? `CGAUGAGGUGUGAGGAUAUCGUGUUCGAAAGAACGUGAGAAGGCACAUGAGGAUCACCCAUGUGAACCUUGUCG`
Solution: bucket 1

Exercise: Returns: class label. Input: `GUUUUGAUAGGAUAUACAUGAGGAUCACCCAUGUCCCACCCGUUACCUAUGACCAUAUGUAGAAGGAUCGUUUG`
Solution: bucket 3

Exercise: Band of `ACAUGUCGUGAGAAGGACGGCGUGCAUAGCGCCGUAGGAUAUCAAGACAUGAGGAUCACCCAUGUACGCGUGUCCAGCCGUGCU` ?
Solution: bucket 3
